studyTarget: Kv1.3 potassium channel (Homo sapiens)
Construct: expressed in transfected cells
Sequence (P22001 whole entry): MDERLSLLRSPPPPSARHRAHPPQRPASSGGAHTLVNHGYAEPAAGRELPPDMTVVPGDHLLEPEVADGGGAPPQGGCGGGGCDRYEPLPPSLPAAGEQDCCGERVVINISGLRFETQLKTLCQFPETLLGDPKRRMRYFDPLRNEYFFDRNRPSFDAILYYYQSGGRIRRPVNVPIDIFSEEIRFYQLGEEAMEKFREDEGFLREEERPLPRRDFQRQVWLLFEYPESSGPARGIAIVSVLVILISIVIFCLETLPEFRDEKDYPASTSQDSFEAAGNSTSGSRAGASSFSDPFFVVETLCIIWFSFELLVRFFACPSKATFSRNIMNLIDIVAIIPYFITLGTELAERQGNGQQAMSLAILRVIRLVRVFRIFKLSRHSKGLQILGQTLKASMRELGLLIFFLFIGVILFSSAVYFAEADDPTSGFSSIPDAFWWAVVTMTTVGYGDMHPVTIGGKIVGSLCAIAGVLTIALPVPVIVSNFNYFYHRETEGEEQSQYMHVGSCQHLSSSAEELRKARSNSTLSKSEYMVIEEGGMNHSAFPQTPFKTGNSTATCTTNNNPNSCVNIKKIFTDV
assayExplanation: Kv1.3 potassium channel blocker activity, automated whole-cell patch clamp (Patchliner) in CHO-K1 cells stably expressing Kv1.3
Type: cell-based
assayConditions: CHO-K1 cells stably expressing Kv1.3; patch clamp, current inhibition; read-out: Kv1.3 IC50
pIC50: −log10 of the molar value.
propertyMeasured: pIC50

Consider the following illustrative entries.
{"compound": "NC1(CO)CCN(c2cc(Cl)c(Cl)cc2O)CC1", "propertyMeasured": "pIC50", "result": "> 5.00"}
{"compound": "Oc1cc(Cl)c(Cl)cc1C1CCNC1 (single isomer, unassigned) [Compound 38, 4,5-dichloro-2-(pyrrolidin-3-yl)phenol]", "propertyMeasured": "pIC50", "result": "> 6.00"}
{"compound": "Oc1c(C2CCNCC2)cc(Cl)c(Cl)c1Cl", "propertyMeasured": "pIC50", "result": "> 5.00"}
{"compound": "NC(=O)[C@H]1CN(c2c(O)ccc(Cl)c2Cl)CCN1", "propertyMeasured": "pIC50", "result": "> 5.00"}
{"compound": "NC(=O)[C@H]1CNCC[C@H]1c1cc(Cl)c(Cl)cc1O (single isomer, unassigned) [Compound 58]", "propertyMeasured": "pIC50", "result": "> 6.00"}

Batch request: pIC50 for each of the following compounds.
1. O=C(NC1CNC1)[C@H]1CCC(c2c(O)ccc(Cl)c2Cl)N1 (single isomer, unassigned)
2. NC(=O)C[C@@H]1C[C@H](c2c(O)ccc(Cl)c2Cl)CCN1 (single isomer, unassigned)
3. Oc1cc(Cl)c(Cl)cc1C1=CCNCC1

// result
> 4.52
> 6.00
> 6.00
